Measured values drawn from patent US9828373B2 for this set.

Assay: Pharmacokinetics in rats (iv and oral, plasma LC-MS/MS)
Assay type: in vivo, male SD rats
Conditions: rat, plasma; male SD rats, iv, 1.0 mg/kg; read-out: Cmax
Measurement label: Cmax (ng/mL)
Field format: number, assumed ng/mL, no unit text.

Using the record for CC(=O)c1c(C)c2cnc(Nc3ccc(N4CCNCC4)cn3)nc2n(C2CCCC2)c1=O [Palbociclib, reference compound] , report its Cmax. 143

---

Experiment: Pharmacokinetics in rats (iv and oral, plasma LC-MS/MS)
Type: in vivo, male SD rats
Conditions: male, SD, rat, in vivo, iv, 1 mg/kg
Measurement label: half-life
Please answer using the number first and the unit second.

Using the record for CC(=O)c1c(C)c2cnc(Nc3ccc4c(n3)CCNC4)nc2n(C2CCCC2)c1=O [Example 3] , report its half-life. 2.93 h
